- target_system: canine TRPM8 (Canis lupus familiaris)
- Sequence (Q1A7N1 1-1104): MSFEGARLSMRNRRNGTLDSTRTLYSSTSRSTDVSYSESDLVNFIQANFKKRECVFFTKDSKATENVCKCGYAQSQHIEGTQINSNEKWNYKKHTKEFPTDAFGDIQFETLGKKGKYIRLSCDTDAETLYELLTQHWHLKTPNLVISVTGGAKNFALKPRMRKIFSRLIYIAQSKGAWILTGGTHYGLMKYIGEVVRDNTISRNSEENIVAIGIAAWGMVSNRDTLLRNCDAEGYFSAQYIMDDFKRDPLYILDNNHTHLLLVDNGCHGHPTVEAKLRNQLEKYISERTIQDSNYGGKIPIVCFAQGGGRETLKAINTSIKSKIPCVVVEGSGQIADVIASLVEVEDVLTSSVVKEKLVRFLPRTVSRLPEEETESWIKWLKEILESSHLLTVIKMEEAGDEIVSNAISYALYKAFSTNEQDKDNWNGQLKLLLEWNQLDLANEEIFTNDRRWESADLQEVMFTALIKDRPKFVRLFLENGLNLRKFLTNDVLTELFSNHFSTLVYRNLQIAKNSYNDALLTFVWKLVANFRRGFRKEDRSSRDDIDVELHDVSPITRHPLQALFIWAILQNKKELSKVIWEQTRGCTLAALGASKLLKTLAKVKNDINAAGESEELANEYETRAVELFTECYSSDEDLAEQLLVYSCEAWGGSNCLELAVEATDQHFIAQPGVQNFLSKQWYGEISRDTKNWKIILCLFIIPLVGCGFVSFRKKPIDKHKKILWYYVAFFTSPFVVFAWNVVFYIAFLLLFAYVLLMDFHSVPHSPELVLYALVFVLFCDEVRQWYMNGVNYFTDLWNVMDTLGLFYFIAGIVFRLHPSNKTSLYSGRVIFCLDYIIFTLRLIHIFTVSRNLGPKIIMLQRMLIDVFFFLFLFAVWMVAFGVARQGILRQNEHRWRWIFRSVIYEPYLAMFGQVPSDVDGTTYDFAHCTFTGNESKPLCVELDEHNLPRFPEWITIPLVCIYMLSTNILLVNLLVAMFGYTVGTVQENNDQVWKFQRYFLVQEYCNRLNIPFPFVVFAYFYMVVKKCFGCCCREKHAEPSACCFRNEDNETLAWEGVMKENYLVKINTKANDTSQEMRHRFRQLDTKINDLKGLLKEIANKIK
- test: In Vitro Canine TRPM8 Functional Assay (Ca2+ fluorescence, icilin activation)
- Format: cell-based
- reported_conditions: HEK293 cells stably expressing canine TRPM8; icilin activation; eight-point dose-response; read-out: IC50
readout_type: IC50 (nM)

| chem_smiles | IC50 [nM] |
| --- | --- |
| Cc1c(N(CCCCC(F)(F)F)S(=O)(=O)c2ccc(N3CCOCC3)cc2)sc2ccccc12 | 9.2 |

(P) CS(=O)(=O)Nc1ccc(S(=O)(=O)N(Cc2ccc(F)c(C(F)(F)F)c2)c2cc3ccccc3s2)cc1
(Q) Cc1c(N(Cc2ccc(F)c(C(F)(F)F)c2)S(=O)(=O)c2ccc(C(=O)NO)cc2)sc2ccccc12
(R) O=S(=O)(c1cccnc1)N(CCCC(F)(F)F)c1sc2ccccc2c1Br
Problem: Put the items in order so that reported IC50 rises from first to last. Order the labels as requested and give them as your answer.
Result: Q, R, P
(Q: 21.9 nM, R: 43 nM, P: 85 nM)
